pIC50 tested on FGFR1 (Homo sapiens): recorded values
Sequence (P11362 22-822): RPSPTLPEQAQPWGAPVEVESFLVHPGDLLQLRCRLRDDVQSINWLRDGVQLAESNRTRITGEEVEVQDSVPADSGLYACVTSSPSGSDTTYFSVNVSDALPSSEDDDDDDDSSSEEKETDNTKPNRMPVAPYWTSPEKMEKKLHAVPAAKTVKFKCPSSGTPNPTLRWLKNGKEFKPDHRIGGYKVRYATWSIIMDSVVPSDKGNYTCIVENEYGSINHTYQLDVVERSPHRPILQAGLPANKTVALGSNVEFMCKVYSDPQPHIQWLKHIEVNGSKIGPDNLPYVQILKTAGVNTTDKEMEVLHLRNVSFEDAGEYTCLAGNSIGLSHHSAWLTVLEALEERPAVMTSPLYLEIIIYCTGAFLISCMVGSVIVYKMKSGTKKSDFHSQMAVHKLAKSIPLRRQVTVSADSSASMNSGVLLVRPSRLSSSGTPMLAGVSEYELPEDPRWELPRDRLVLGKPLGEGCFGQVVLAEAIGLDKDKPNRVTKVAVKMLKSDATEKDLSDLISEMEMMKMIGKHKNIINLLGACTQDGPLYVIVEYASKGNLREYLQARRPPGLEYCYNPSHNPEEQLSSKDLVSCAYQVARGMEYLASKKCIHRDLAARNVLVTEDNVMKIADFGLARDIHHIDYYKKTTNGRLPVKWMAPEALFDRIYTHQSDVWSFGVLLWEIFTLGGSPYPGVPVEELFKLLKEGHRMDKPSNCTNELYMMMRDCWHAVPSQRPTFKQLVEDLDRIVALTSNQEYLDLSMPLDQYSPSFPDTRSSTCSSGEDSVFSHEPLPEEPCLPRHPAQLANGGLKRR
Give only the number. pIC50 is defined as minus log10 of concentration in molar units.

• COc1cc(OC)c(F)c(COc2cnc(NC(=O)N3CCCc4c(C)cc(C=O)nc43)nc2)c1F [Example 5] = 6.89

// moving on: another record for pIC50
## Task Which pIC50 reading was recorded for the compound COc1cc(OC)c(F)c(CCc2cnc(NC(=O)N3CCCc4ccc(C=O)nc43)nc2)c1F [Example 6] ?
## Result 7.20

Where do the numbers come from? From patent US20220362245A1.
